# target_desc: T1, human IL-15Rα (human, UniProt Q13261 31-205, limits assumed)
# T1 construct: also called hIL-15Rα; IL-15 receptor alpha
# assay_method_text: SPR, steady state
readout_type: pKd
# pKd: negative log10 of molar concentration; output just the value

Illustrative cases are given below, each with its answer.
May I ask what pKd has been recorded for hIL-15 V49R/Q108K (ligand) NWVNVISDLKKIEDLIQSMHIDATLYTESDVHPSCKVTAMKCFLLELQRISLESGDASIHDTVENLIILANNSLSSNGNVTESGCKECEELEEKNIKEFLQSFVHIVKMFINTGGGGSGHHHHHHHHGGGLNDIFEAQKIEWHE ?
7.07

Field entry: hIL-15 V49R/S7N (ligand) NWVNVINDLKKIEDLIQSMHIDATLYTESDVHPSCKVTAMKCFLLELQRISLESGDASIHDTVENLIILANNSLSSNGNVTESGCKECEELEEKNIKEFLQSFVHIVQMFINTGGGGSGHHHHHHHHGGGLNDIFEAQKIEWHE
7.03

Check hIL-15 V49R/N1H (ligand) HWVNVISDLKKIEDLIQSMHIDATLYTESDVHPSCKVTAMKCFLLELQRISLESGDASIHDTVENLIILANNSLSSNGNVTESGCKECEELEEKNIKEFLQSFVHIVQMFINTGGGGSGHHHHHHHHGGGLNDIFEAQKIEWHE too.
6.82

Read the next record carefully.
# input binder: hIL-15 V49R/N1R (ligand) RWVNVISDLKKIEDLIQSMHIDATLYTESDVHPSCKVTAMKCFLLELQRISLESGDASIHDTVENLIILANNSLSSNGNVTESGCKECEELEEKNIKEFLQSFVHIVQMFINTGGGGSGHHHHHHHHGGGLNDIFEAQKIEWHE ; wanted: its pKd
6.61

Data credit: patent US20210324028A1
